Tested on: PfSIP2 AP2 domain 1 (GST-tagged)
Assay: gcPBM binding intensity (ln(normalized median fluorescence intensity)); higher = stronger DNA binding
Over roughly 25,000 sequences, “ln(normalized median fluorescence intensity)” has its median near 7.1; the highest 2% begin near 10. Shown is part of a subset that was picked to be rich in the highest values.
Quantity Measured: gcPBM binding intensity (ln)

                              sequence_text             quantity_measured  observed_result
0  AGAGACACTTTTTATTGTACAAGAGGAGGTTACCTT [XGTACX_site8768]  gcPBM binding intensity (ln)             6.61
1  AAATGTAATAATAAATGTACAAACATATATATGTAT [XGTACX_site8718]  gcPBM binding intensity (ln)             6.94
2      TAGGCCTTAAATCGTGTGCACTTTTTTTTTTTTTTT  gcPBM binding intensity (ln)             10.7
3  GGTATATTAAAATAGGTGCATAAAACTAAGAGAAAA [GTGCAC_site9781]  gcPBM binding intensity (ln)               11
4      TAATAAATGTTATTAGTGCATAATAGATAATATATT  gcPBM binding intensity (ln)             8.29
5      ATATATAAATAAATAGTGCATTTTAATATTTAACGT  gcPBM binding intensity (ln)             9.27
6  AAAAATAAAGAAACAGGTACGCATATATTAAGATAT [XGTACX_site8097]  gcPBM binding intensity (ln)                7
7  AAAAAAAAAAGAAATTGTACTTTTTGTTTAATAATT [XGTACX_site4681]  gcPBM binding intensity (ln)             6.65
8  TAAATATATATATGTGTGCACTTCTTCATTTTAATA [GTGCAC_site9537]  gcPBM binding intensity (ln)             9.97
9  AATATCATTATATAAGTGCATTTTTTAAAAGATAAA [GTGCAC_site9479]  gcPBM binding intensity (ln)             9.12
